Recorded values, source patent US7943628B2.

Target: histamine H4 receptor (Homo sapiens, UniProt Q9H3N8)
Construct: expressed in transfected cells; host or cells: CHO cells
Sequence (Q9H3N8 whole entry): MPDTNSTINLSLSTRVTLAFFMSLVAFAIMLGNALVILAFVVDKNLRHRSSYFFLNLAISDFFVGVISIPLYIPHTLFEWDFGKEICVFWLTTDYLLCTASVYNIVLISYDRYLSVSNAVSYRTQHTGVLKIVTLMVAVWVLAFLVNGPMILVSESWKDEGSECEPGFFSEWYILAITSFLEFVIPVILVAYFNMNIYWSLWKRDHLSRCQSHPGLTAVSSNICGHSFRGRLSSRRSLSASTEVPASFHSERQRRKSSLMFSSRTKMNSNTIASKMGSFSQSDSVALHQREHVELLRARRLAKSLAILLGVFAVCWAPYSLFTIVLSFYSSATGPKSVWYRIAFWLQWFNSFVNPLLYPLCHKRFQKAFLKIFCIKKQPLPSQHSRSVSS
Assay: H4 binding, method 2 ([3H]-histamine binding with Ysi WGA beads on CHO cell membranes)
Conditions: H4 binding, method 2; Ki calculated from IC50 (Cheng-Prussoff); read-out: Method 2 (Ki (nM))
Consider the cut-off 200 nM. If the recorded Ki is strictly smaller, the label is Met; if not, the label is Not met.

| Molecule | Cat |
| --- | --- |
| CNC1CN(c2cc(NC3CC3)nc(N)n2)C1 [Example 72] | Met |
| CC(C)(C)CCNc1cc(N2CCNCC2)ncn1 [Example 111] | Not met |
| c1ccc(CCNc2cc(N[C@@H]3CCNC3)ncn2)cc1 [Example 346] | Not met |
| c1nc(NCC2CC2)cc(N2C[C@H]3CCCN[C@H]3C2)n1 (relative stereo) [Example 123] | Met |
| CNc1cc(N2C[C@H]3CCCN[C@H]3C2)nc(N)n1 (racemic) [Example 25] | Met |
| CNC1CN(c2cc(NCc3ccccc3C(F)(F)F)nc(N)n2)C1 [Example 84] | Met |
| c1ccc(CNc2cc(N[C@@H]3CCNC3)ncn2)cc1 [Example 337] | Not met |
| CCN1CCN(c2cc(NCCC(C)(C)C)ncn2)CC1 [Example 270] | Not met |
| CNC1CN(c2cc(NCc3ccccc3F)nc(N)n2)C1 [Example 78] | Met |
| CNC1CN(c2cc(NCCOC)ncn2)C1 [Example 54] | Not met |
| CNC1CN(c2cc(NCc3ccc(OC(F)(F)F)cc3)nc(N)n2)C1 [Example 76] | Met |
| CNC1CN(c2cc(NCC3CCC3)nc(N)n2)C1 [Example 67] | Met |
| CN1CCN(c2cc(NCCC(C)(C)C)nc(N(C)C)n2)CC1 [Example 330] | Not met |
| CN(C)[C@@H]1CCN(c2cc(NCC3CC3)ncn2)C1 [Example 19] | Met |
| CNC1CN(c2cc(NCc3ccc(Cl)cc3)nc(N)n2)C1 [Example 81] | Met |
| CC(C)(C)CNc1cc(N2C[C@@H]3[C@@H](N)[C@@H]3C2)nc(N)n1 [Example 126] | Not met |
| CNC1CN(c2cc(NCc3cccc(C(F)(F)F)c3)nc(N)n2)C1 [Example 80] | Met |
| CN1CCC(N(C)c2cc(NCCC(C)(C)C)ncn2)CC1 [Example 279] | Not met |
| CC(C)CNc1cc(N2CC[C@@H](N(C)C)C2)ncn1 [Example 20] | Met |
| C[C@H]1CN(c2cc(NCC(C)(C)C)nc(N)n2)CCN1 [Example 96] | Met |
| CNC1CN(c2cc(NCc3ccc(C(F)(F)F)cc3)nc(N)n2)C1 [Example 85] | Met |
| CN1CCN(c2cc(N(C)CC3CC3)ncn2)CC1 [Example 334] | Not met |
| c1nc(NC[C@@H]2CCCO2)cc(N[C@@H]2CCNC2)n1 [Example 341] | Not met |
| CNC1CN(c2cc(N3CCCC3)ncn2)C1 [Example 336] | Not met |

* * *

Listing of recorded Ki by entry.
Target: histamine H4 receptor (Homo sapiens)
Construct: expressed in transfected cells; host or cells: CHO cells
Assay: H4 binding, method 1 ([3H]-histamine filtration binding on CHO cell membranes)
Settings: H4 binding, method 1; Ki calculated from IC50 (Cheng-Prussoff)

| Compound | Ki |
| --- | --- |
| CCNc1cc(N2CC[C@H](NC)C2)nc(N)n1 [Example 205] | 39.3 nM |
| CC(C)CNc1cc(N2CCN(C)CC2)nc(N)n1 [Example 121] | 2.18 nM |
| CN1CCCN(c2cc(NC3CC3)ncn2)CC1 [Example 224] | 101 nM |
| CN1C[C@@H]2CN(c3cc(NCCC(C)(C)C)ncn3)C[C@@H]2C1 [Example 3] | 220 nM |
| c1nc(NC[C@H]2CCCO2)cc(N[C@H]2CCNC2)n1 [Example 319] | 6010 nM |
| CC(C)Nc1cc(N2C[C@H]3CNC[C@H]3C2)nc(N)n1 [Example 238] | 222 nM |
| CNc1cc(N2CCNCC2)nc(N)n1 [Example 208] | 45.1 nM |
| NCCNc1cc(NCC2CC2)nc(N)n1 [Example 212] | 50 nM |
| CN[C@@H]1CCN(c2cc(NC(C)C)ncn2)C1 [Example 202] | 36.5 nM |
| CCNc1cc(N2CC(NC)C2)nc(N)n1 [Example 164] | 3.82 nM |
| CN(C)CCNc1cc(NCC2CC2)nc(N)n1 [Example 176] | 15.1 nM |
| CNC1CN(c2cc(NC(C)C)nc(N)n2)C1 [Example 60] | 3.57 nM |
| CNC1CN(c2cc(N3CCOC[C@H]3C)nc(N)n2)C1 [Example 263] | 626 nM |
| CNc1cc(N2CC[C@@H](NC)C2)nc(N)n1 [Example 221] | 90.3 nM |

* * *

Target: histamine H4 receptor (Homo sapiens, UniProt Q9H3N8)
Construct: expressed in transfected cells; host or cells: CHO cells
Assay: H4 binding, method 1 ([3H]-histamine filtration binding on CHO cell membranes)
Conditions: H4 binding, method 1; Ki calculated from IC50 (Cheng-Prussoff)
Consider the cut-off 100 nM. If the recorded Ki is strictly smaller, the label is y; if not, the label is n.

| Compound | Cat |
| --- | --- |
| CNC1CN(c2cc(NCC3CCC3)nc(N)n2)C1 | y |
| CC(C)(C)CNc1cc(N2CC(N3CCOCC3)C2)nc(N)n1 | n |
| CCCNc1cc(N2CCC(N)CC2)nc(N)n1 | n |
| CC(C)Nc1cc(N2CCN(C)CC2)nc(N)n1 | y |
| CN[C@@H]1CCN(c2cc(NC3CCC3)nc(N)n2)C1 | y |
| CC(C)(C)Nc1cc(N2C[C@@H]3CCCN[C@@H]3C2)nc(N)n1 (relative stereo) | y |
| CN[C@@H]1CCN(c2cc(NC3CC3C)nc(N)n2)C1 (stereo partly drawn) | y |
| CN(C)CCNc1cc(NCC2CC2)ncn1 | y |
| CC(C)CNc1cc(N2CCN(C)CC2)ncn1 | y |
| CN[C@H]1CCN(c2cc(NCCC(C)(C)C)nc(N)n2)C1 | y |
| CNCC1CN(c2cc(NCC3CC3)nc(N)n2)C1 | n |
| CC(C)Nc1cc(N2C[C@@H]3CCCN[C@@H]3C2)nc(N)n1 | y |
| Nc1nc(NCC2CC2)cc(N2C[C@@H]3CCCN[C@@H]3C2)n1 | y |
| Nc1nc(NC2CCC2)cc(N2C[C@H]3CCCN[C@H]3C2)n1 | n |
| CCCNc1cc(N2CCNCC2)nc(N)n1 | y |
| CC(C)Nc1cc(N2CCC3NCCC3C2)nc(N)n1 (stereo not drawn) | n |
| CNC1CN(c2cc(NC3CC3)ncn2)C1 | y |
| Nc1nc(NC2CC2)cc(N2CCC(N)CC2)n1 | n |
| CN[C@@H]1CCN(c2cc(NC34CC(C3)C4)nc(N)n2)C1 | y |
| CC(C)CNc1cc(N2CC[C@@H](N)C2)nc(N)n1 | y |
| CCC(C)CNc1cc(N2CC[C@@H](N)C2)nc(N)n1 (stereo partly drawn) | y |
| CNC1CCCN(c2cc(NCC(C)(C)C)nc(N)n2)C1 (stereo not drawn) | n |
| CNCC1CN(c2cc(NCC(C)(C)C)nc(N)n2)C1 | y |
| CC(C)(C)CNc1cc(N2CCC(N)CC2)nc(N)n1 | y |
| CC(C)(C)CCNc1cc(N[C@H]2CCNC2)nc(N)n1 | n |
| CN[C@@H]1CCN(c2cc(NCc3cccc(F)c3F)nc(N)n2)C1 | n |
| CN[C@@H]1CCN(c2cc(NCc3c(F)cccc3F)nc(N)n2)C1 | n |
| CC(C)NC1CN(c2cc(NCC(C)(C)C)ncn2)C1 | n |
| CN[C@@H]1CCN(c2cc(NCc3cc(F)cc(F)c3)nc(N)n2)C1 | n |
| CN[C@@H]1CCN(c2cc(NCc3ccccc3F)nc(N)n2)C1 | n |

* * *

Biological target: histamine H4 receptor (Homo sapiens)
Construct: expressed in transfected cells; host or cells: CHO cells
Assay: H4 binding, method 1 ([3H]-histamine filtration binding on CHO cell membranes)
Conditions: H4 binding, method 1; Ki calculated from IC50 (Cheng-Prussoff)
Listing of recorded Ki by entry.

| Compound | Ki (nM) |
| --- | --- |
| Nc1nc(NCC2CC2)cc(N2CCNCC2)n1 | 1.71 |
| CCCC(C)Nc1cc(N2CC(NC)C2)nc(N)n1 (stereo not drawn) | 2.59 |
| CNC1CN(c2cc(N[C@@H](C)C(C)C)nc(N)n2)C1 | 3.78 |
